Cited source for all entries: the RNAGym collection of RNA variant scans (doi:10.1021/acssynbio.7b00057)

B1: Pistol ribozyme (parent)
chain: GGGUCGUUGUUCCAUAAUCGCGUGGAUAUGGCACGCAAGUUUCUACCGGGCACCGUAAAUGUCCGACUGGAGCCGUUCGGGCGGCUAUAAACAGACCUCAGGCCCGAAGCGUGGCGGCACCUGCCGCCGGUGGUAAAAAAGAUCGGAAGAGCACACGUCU

variants of: B1; experiment: aptazyme ON/OFF ratio, guanine; higher = stronger switching; co-transcriptional cleavage with and without guanine
Provide the recorded aptazyme ON/OFF ratio for the entries that follow.
Answers are plain numbers.

Solved entries (count: 5):
- variant-identifier: "U8G U11G C13A"
  aptazyme ON/OFF ratio: 1.04
- variant-identifier: "U7C U8A G9A U11C C12G"
  aptazyme ON/OFF ratio: 1.16
- variant-identifier: "U7A U8C U10C U11C C13G"
  aptazyme ON/OFF ratio: 1.17
- variant-identifier: "U7G G9U U10G C12U C13A"
  aptazyme ON/OFF ratio: 1.28
- variant-identifier: "U7A G9U U10G C12G C13A"
  aptazyme ON/OFF ratio: 1.18

Please go through the list and note aptazyme ON/OFF ratio for each variant.
1. U7G U8A U10C C12A
2. U7C U8A G9A U10G U11A C12A C13G
3. U7G U8G G9U U10C C13G
4. G9A U10C

1. 1.5
2. 1.17
3. 1.31
4. 3.12

Please go through the list and note aptazyme ON/OFF ratio for each variant.
1. U7C U8C U10A C12U C13G
2. U7C U8C G9C U11G C12A

1.06
1.22
